Test description: M. tuberculosis H37Rv growth inhibitors, H37Rv strain (AID 1626);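 also: bacteria incubated seven days before Alamar blue readout; 0% = bacteria only wells and 100% = bacteria with antibiotic wells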
Condition details: hits give high values, concentration not given here
The campaign covered roughly 220,000 compounds. About 2,000 (0.91%) were called active. Roughly 2% stayed inconclusive and do not appear here. A selection follows. Entries with a potency or affinity are not part of this list.
The entries below come with measured inhibition values attached.
Output spec: scalar in %, unitless text.

Known inhibition results, listed for orientation:
>>> obs_value("Cc1ccc(-n2c(=S)[nH]c3[nH]ncc3c2=O)cc1")
1.01
>>> obs_value("CCOc1ccc(CN2CCN(Cc3cccc4c3OCO4)CC2CCO)cc1 (stereo not drawn)")
5.32
>>> obs_value("CC(C)OC(=O)CN1C(=O)C(C)(C)Oc2ccc(C(=O)NC3CC3)cc21")
-5.84
>>> obs_value("O=C(/C=C/c1ccco1)Nc1ccccc1N1CCCCC1")
10.2
>>> obs_value("Cc1nc2ccccc2c(=O)n1/N=C/C=C/c1ccccc1")
-2.49
>>> obs_value("Cc1ccc(C)c(SCC(=O)Nc2cccnc2Cl)c1")
18.9
>>> obs_value("CC1=C(C(=O)OCc2ccc(C)cc2)C(c2ccc(O)c([N+](=O)[O-])c2)NC(=O)N1 (stereo not drawn)")
-1.03

Now, please, on to the next compound.
Look at this compound and give its reported inhibition. Cc1ccc(/C=N/n2c(C)cc(C)c(C#N)c2=O)cc1
-12.6

* * *

Test description: M. tuberculosis H37Rv growth inhibitors, H37Rv strain (AID 1626);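 also: bacteria incubated seven days before Alamar blue readout; 0% = bacteria only wells and 100% = bacteria with antibiotic wells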
Condition details: hits give high values, concentration not given here
The campaign covered roughly 220,000 compounds. About 2,000 (0.91%) were called active. About 2% were inconclusive and are not listed. A selection follows. Entries with a potency or affinity are not part of this list.
Measured inhibition by item
The reply should be a number in %, with the unit left off.

Guide cases for inhibition, answers given:
>>> obs_value("COc1ccc(N2C(=O)c3ccccc3S2(=O)=O)cc1")
-3.28
>>> obs_value("COc1ccc2nc(C)cc(C(=O)O)c2c1")
0.85

--- query ---
Returns the measured inhibition for the input compound. Input: CCC(CC)C(=O)Nc1cccc(C(=O)Nc2ccc3c(c2)OCO3)c1
0.36

* * *

Test description: M. tuberculosis H37Rv growth inhibitors, H37Rv strain (AID 1626);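 also: bacteria incubated seven days before Alamar blue readout; 0% = bacteria only wells and 100% = bacteria with antibiotic wells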
Condition details: hits give high values, concentration not given here
In all, about 220,000 compounds went through this assay and about 2,000 (0.91%) were called active. Roughly 2% stayed inconclusive and do not appear here. A selection follows. Results with a measured potency or affinity are listed apart.
inhibition listing for selected molecules.
Please respond with the number in % and leave the unit unwritten.

>>> obs_value("CC1CCC/C(=N/NC(=O)c2ccccc2-n2cccc2)C1 (configuration not stated)")
-3.77
>>> obs_value("Cc1ccc(Cn2c(NS(=O)(=O)c3ccccc3)nc3ccccc32)cc1")
84.8
>>> obs_value("Cn1c(C(C#N)C(=O)Cc2cccc3ccccc23)nc2ccccc21 (configuration not stated)")
-15.5
>>> obs_value("COc1ccc(/C=C/C(=O)Nc2nc(N)n(-c3ccccc3)n2)cc1")
6.8
>>> obs_value("Nc1nc(NC(=O)/C=C/c2ccccc2)nn1-c1ccccc1")
-0.46

Consider the molecule shown here: O=C(Nc1nc2ccccc2n1CCN1CCCCC1)c1ccco1 What is its recorded inhibition?
6.64

Look up inhibition for this molecule: CCCn1c(NCc2ccco2)nc2ccccc21
-3.29
